Below, each entry is listed with its recorded melting point.

In the examples that follow, each entry is paired with its recorded melting point.
Give me measured melting point, please, for this molecule: O=C(Nc1cccc(C(F)(F)F)c1)Nc1c(C(=O)O)[nH]c(=O)[nH]c1=O
> 300 °C

Give me measured melting point, please, for this molecule: O=C(Nc1ccccc1F)Nc1cc(Cl)ccc1C(=O)O
195 to 197 °C

Give me measured melting point, please, for this molecule: O=C(Nc1ccc(-c2ccccc2)cc1-c1nnn[nH]1)c1cc(C(F)(F)F)cc(C(F)(F)F)c1
156 °C (dec.)

Give me measured melting point, please, for this molecule: O=C(Nc1cccc(C(F)(F)F)c1)Nc1nccnc1C(=O)O
> 300 °C

Give me measured melting point, please, for this molecule: O=C(Nc1ncccn1)Nc1ccccc1C(F)(F)F
224 to 225 °C

Give me measured melting point, please, for this molecule: O=C(Nc1ccc(Nc2ccc(Cl)cc2)c(Cl)c1)c1cc([N+](=O)[O-])ccc1O
> 219 °C (dec.)

Give me measured melting point, please, for this molecule: O=C(Nc1cc(Cl)ccc1O)Nc1ccccc1C(F)(F)F
183 to 184 °C

Give me measured melting point, please, for this molecule: O=C(Nc1cc(Cl)cc(Cl)c1)Nc1ccc(Cl)cc1-c1nnn[nH]1
234 to 236 °C

More entries:
Give me measured melting point, please, for this molecule: O=C(Nc1cc(C(F)(F)F)ccc1O)Nc1ccccc1C(F)(F)F
158 to 159 °C

Give me measured melting point, please, for this molecule: CN(C)C(=O)CCc1ccc(NC(=O)Nc2ccc(Cl)c(C(F)(F)F)c2)c(-c2nnn[nH]2)c1
184.5 to 189.3 °C

Give me measured melting point, please, for this molecule: COc1ccc(NC(=O)Nc2cccc(C(F)(F)F)c2)c(O)n1
223 to 224 °C
